The measured values listed here are drawn from patent US9309285B2.

Target: S. aureus SPase (Staphylococcus aureus, UniProt P0A070)
Construct: Full length His-tagged E. coli and S. aureus SPase proteins were expressed in E. coli BL21; His tag; made in house; host or cells: E. coli BL21 (DE3)
Sequence (P0A070 whole entry): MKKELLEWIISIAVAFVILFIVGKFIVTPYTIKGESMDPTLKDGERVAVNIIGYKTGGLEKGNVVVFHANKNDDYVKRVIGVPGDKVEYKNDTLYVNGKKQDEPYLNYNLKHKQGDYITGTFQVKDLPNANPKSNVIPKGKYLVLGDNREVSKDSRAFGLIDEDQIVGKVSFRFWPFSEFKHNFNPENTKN
Assay: SPase enzyme inhibition assay, fluorogenic peptide substrate, S. aureus
Assay type: biochemical
pIC50: −log10 of the molar value. Positions of bridges follow the written chain, without caps; N, C: chain ends. Non-standard residues stand in square brackets, D forms with d. Residues, ends and D or L forms follow the SMILES beside them. *: point of attachment. boroAla((+)-pinanediol) = C[C@H](N*)B1O[C@@H]2C[C@@H]3C[C@@H](C3(C)C)[C@]2(C)O1; Biphenylcarbonyl(4'-Bu) = CCCCc1ccc(-c2ccc(C(=O)*)cc2)cc1; Orn = NCCC[C@H](N)C(=O)O
Mark no for pIC50 values under 7, and yes for everything at or above.

MOLECULE	TARGET_OR_TEST_SYSTEM	ANSWER_LABEL
CCCCc1ccc(-c2ccc(C(=O)NC[C@@H](N)C(=O)N[C@@H](CCCCN)C(=O)N(C)[C@@H]3C(=O)N[C@@H](C)C(=O)N[C@H](C(=O)O)Cc4ccc(O)c(c4)-c4cc3ccc4O)cc2)cc1 [Compound 109]	S. aureus SPase (Staphylococcus aureus, UniProt P0A070)	yes
C[C@@H]1NC(=O)[C@@H](N(C)C(=O)[C@H](CCCCN)NC(=O)c2ccc(-c3ccc(Cl)cc3)cc2)c2ccc(O)c(c2)-c2cc(ccc2O)C[C@@H](C(=O)O)NC1=O [Compound 127]	S. aureus SPase (Staphylococcus aureus, UniProt P0A070)	no
CCCCc1ccc(-c2ccc(C(=O)NC(C)CC(=O)N[C@@H](CCCCN)C(=O)N(C)[C@@H]3C(=O)N[C@@H](C)C(=O)N[C@H](C(=O)O)Cc4ccc(O)c(c4)-c4cc3ccc4O)cc2)cc1 (some centres unmarked) [Compound 106]	S. aureus SPase (Staphylococcus aureus, UniProt P0A070)	yes
CCCCc1ccc(-c2ccc(C(=O)N[C@@H](C)CC(=O)N[C@@H](CCCCN)C(=O)N(C)[C@@H]3C(=O)N[C@@H](C)C(=O)N[C@H](C(=O)O)Cc4ccc(O)c(c4)-c4cc3ccc4O)cc2)cc1 [Compound 107]	S. aureus SPase (Staphylococcus aureus, UniProt P0A070)	yes
CCCCc1ccc(-c2ccc(C(=O)N[C@@H](CCCCN)C(=O)N[C@H]3COCCCCOCC[C@@H](C(=O)N[C@@H](C)B4O[C@@H]5C[C@@H]6C[C@@H](C6(C)C)[C@]5(C)O4)NC(=O)[C@H](C)NC3=O)cc2)cc1 [Compound 207]	S. aureus SPase (Staphylococcus aureus, UniProt P0A070)	no
CCCCCCCC(=O)NCCC(=O)N[C@@H](CCCCN)C(=O)N(C)[C@@H]1C(=O)N[C@@H](C)C(=O)N[C@H](C(=O)N[C@@H](C)B2O[C@@H]3C[C@@H]4C[C@@H](C4(C)C)[C@]3(C)O2)Cc2ccc(O)c(c2)-c2cc1ccc2O [Compound 123]	S. aureus SPase (Staphylococcus aureus, UniProt P0A070)	yes
CCCCc1ccc(-c2ccc(C(=O)N[C@@H](CCCCN)C(=O)N[C@H]3CCC(=O)NCCC[C@@H](C(=O)N[C@@H](C)B4O[C@@H]5C[C@@H]6C[C@@H](C6(C)C)[C@]5(C)O4)NC(=O)[C@H](C)NC3=O)cc2)cc1 [Compound 202] ({Biphenylcarbonyl(4'-Bu)}-KEA[Orn]-{boroAla((+)-pinanediol)}; lactam 2-4)	S. aureus SPase (Staphylococcus aureus, UniProt P0A070)	no
